STUDY SYSTEM: hmGlu5 (Homo sapiens)
Construct: expressed in transfected cells; host or cells: HEK 293A
Sequence (P41594 21-1212): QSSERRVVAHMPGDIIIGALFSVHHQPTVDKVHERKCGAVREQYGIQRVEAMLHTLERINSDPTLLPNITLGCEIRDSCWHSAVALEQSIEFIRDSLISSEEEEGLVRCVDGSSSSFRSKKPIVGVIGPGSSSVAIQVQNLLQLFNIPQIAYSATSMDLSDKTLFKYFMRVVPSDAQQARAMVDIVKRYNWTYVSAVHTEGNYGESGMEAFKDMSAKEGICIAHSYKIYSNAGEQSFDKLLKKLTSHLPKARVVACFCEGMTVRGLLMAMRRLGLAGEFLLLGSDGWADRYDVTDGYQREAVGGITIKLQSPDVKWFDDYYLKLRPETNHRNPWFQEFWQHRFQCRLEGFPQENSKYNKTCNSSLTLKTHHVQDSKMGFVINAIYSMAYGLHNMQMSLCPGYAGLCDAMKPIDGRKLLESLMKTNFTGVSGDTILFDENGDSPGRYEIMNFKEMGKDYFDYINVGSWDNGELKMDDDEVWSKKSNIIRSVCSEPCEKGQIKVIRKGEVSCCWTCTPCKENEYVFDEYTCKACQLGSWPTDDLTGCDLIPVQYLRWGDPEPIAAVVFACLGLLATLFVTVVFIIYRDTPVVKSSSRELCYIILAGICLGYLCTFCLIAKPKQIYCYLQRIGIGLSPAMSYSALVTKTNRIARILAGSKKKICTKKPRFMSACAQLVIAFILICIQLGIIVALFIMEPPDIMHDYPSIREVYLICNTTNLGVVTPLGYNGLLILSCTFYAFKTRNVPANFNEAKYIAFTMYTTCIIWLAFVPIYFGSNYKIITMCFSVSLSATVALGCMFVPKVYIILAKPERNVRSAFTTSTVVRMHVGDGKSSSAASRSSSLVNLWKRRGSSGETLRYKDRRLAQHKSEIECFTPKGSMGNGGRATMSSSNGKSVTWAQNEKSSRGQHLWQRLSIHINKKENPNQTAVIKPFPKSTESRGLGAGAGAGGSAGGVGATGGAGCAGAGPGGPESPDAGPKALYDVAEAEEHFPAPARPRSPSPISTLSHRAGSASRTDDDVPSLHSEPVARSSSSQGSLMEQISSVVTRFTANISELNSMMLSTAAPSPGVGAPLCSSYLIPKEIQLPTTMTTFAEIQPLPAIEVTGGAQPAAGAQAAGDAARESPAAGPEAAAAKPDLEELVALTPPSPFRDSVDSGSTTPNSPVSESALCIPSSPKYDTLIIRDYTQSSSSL
EXPERIMENT SUMMARY: mGlu5 Ca2+ flux assay in HEK 293A cells (negative allosteric modulation of glutamate EC80 response)
Type: cell-based
RECORDED CONDITIONS: HEK 293A cells, Ca2+ flux, glutamate EC80; >10,000 = decrease without plateau; read-out: hmGlu5 NAM IC50
Procedure: HEK 293A cells stably expressing either rat or human mGlu5 were plated in black-walled, clear-bottomed, poly-D-lysine coated 384-well plates in 20 μL of assay medium (DMEM containing 10% dialyzed FBS, 20 mM HEPES, 100 units/mL penicillin/streptomycin plus 250 ng/mL Fungizone, and 1 mM sodium pyruvate) at a density of 20K cells/well. The cells were grown overnight at 37° C. in the presence of 5% CO2. […] Ca^2+ flux was measured using the Functional Drug Screening System (FDSS7000, Hamamatsu, Japan). […]
MEASURED QUANTITY: IC50 (µM)

Example entries begin here.
MOLECULE	MEASURED QUANTITY	UNIT NAME	MEASURED
COc1c(-c2cncc(F)c2)cc(-c2n[nH]c(-c3ccccc3F)n2)nc1C	IC50	µM	0.3
Cc1ccncc1-c1cc(-c2noc(-c3cc(Cl)ccn3)n2)nc(C)c1F	IC50	µM	0.155
Cc1ccncc1-c1cc(-c2noc(-c3ccccn3)n2)nc(C)c1F	IC50	µM	0.233
CCn1cc(-c2cc(-c3nnc(-c4ccc(F)cn4)o3)nc(C)c2F)cn1	IC50	µM	0.591

a. COc1c(-c2cncc(F)c2)cc(-c2n[nH]c(-c3cccc(F)c3)n2)nc1C
b. [2H]C([2H])([2H])c1cc(-c2cncc(F)c2)cc(-c2noc(-c3ccc(F)cn3)n2)n1
c. Cc1ccncc1-c1cc(-c2noc(C(F)c3ccccc3)n2)nc(C)c1F (centres unmarked)
IN: Hey, quick one: sort these by IC50, largest value first please. Put the labels in the order asked and list them.
OUT: c, b, a

A. Cc1nc(-c2n[nH]c(-c3ccccc3F)n2)cc(-c2cncc(F)c2)c1F
B. Cc1nc(-c2noc(-c3ccccc3F)n2)cc(-c2cncc(F)c2)c1F
C. Fc1ccc(-c2noc(-c3cc(-c4cncc(F)c4)cc(C(F)F)n3)n2)nc1
IN: Ordering: ascending IC50. Output spec: a listing of the labels in the requested order.
OUT: A, C, B

Data provenance is patent US20250026743A1.
